molecular target: Recombinant human FcγRIIIa-V158 (human, UniProt P08637 17-208); experiment: SPR; -kif
Sequence (P08637 17-208 F176V): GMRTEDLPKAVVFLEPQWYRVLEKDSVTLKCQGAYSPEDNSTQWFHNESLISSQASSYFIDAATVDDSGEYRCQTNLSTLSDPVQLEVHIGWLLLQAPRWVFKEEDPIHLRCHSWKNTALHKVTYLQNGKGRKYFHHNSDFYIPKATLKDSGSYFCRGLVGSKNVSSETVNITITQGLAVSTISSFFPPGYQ
Measured endpoint: Kd (nM)
# number only, unit nM dropped from output

**Q:** I would be grateful if you could share the reported Kd for human IgG1 antibody specific for protein 4, S239D + T256D/T307Q, -Kif (antibody) ASTKGPSVFPLAPSSKSTSGGTAALGCLVKDYFPEPVTVSWNSGALTSGVHTFPAVLQSSGLYSLSSVVTVPSSSLGTQTYICNVNHKPSNTKVDKKVEPKSCDKTHTCPPCPAPELLGGPDVFLFPPKPKDTLMISRDPEVTCVVVDVSHEDPEVKFNWYVDGVEVHNAKTKPREEQYNSTYRVVSVLQVLHQDWLNGKEYKCKVSNKALPAPIEKTISKAKGQPREPQVYTLPPSRDELTKNQVSLTCLVKGFYPSDIAVEWESNGQPENNYKTTPPVLDSDGSFFLYSKLTVDKSRWQQGNVFSCSVMHEALHNHYTQKSLSLSPGK .
**A:** 60.4
